# System: K. brevis EH
# test: Inhibition assay of purified EH with fluorescent substrate 5b
# Assay type: biochemical, Karenia brevis
# test.context: substrate 5b 100 μM, EH 0.1 mg/ml, 2 min preincubation, pH 7.0, 30 °C
parameter.measured: pIC50
Hey, just a heads up that pIC50 is the negative log base 10 of the concentration in molar.

Check out these entries, answers already filled in.
# molecule, parameter.measured, observed
measured = [
    ("CC1OC1c1ccccc1 (stereo not drawn) [cis-β-methylstyrene oxide]", "pIC50", 2.52),
    ("CC1(C)OC1c1ccccc1 (stereo not drawn) [β-dimethylstyrene oxide]", "pIC50", 2.16),
]

Turning now to a further molecule:
-- ask Would you mind telling me what pIC50 value was observed for C[C@H]1O[C@@H]1c1ccccc1 (relative stereo) [trans-β-methylstyrene oxide-, trans-β-methylstyrene oxide] ?
-- reply 1.85
